Data origin: ChEMBL document CHEMBL1240428

System: Penicillium citrinum
assayInfo: Antifungal activity against Penicillium citrinum at 50 ug/mL
Format: functional
runConditions: read-out: IZ
measuredEndpoint: zone of inhibition at 50 µg/mL (mm)

[[record]]
molecule = "COC1=CC(=O)C[C@@H](C)[C@]12Oc1c(Cl)c(OC)cc(OC)c1C2=O [GRISEOFULVIN]"
uom = "mm"
value = 25

[[record]]
molecule = "O=C(Cn1ncc2cc([N+](=O)[O-])ccc21)NN1C(=O)CSC1c1ccccc1 (centres undefined)"
uom = "mm"
value = 14.8

[[record]]
molecule = "COc1ccc(/C=N/NC(=O)Cn2ncc3cc([N+](=O)[O-])ccc32)cc1"
uom = "mm"
value = 10

[[record]]
molecule = "O=C(Cn1ncc2cc([N+](=O)[O-])ccc21)NN1C(=O)CSC1c1ccccc1Br (centres undefined)"
uom = "mm"
value = 17.2

[[record]]
molecule = "O=C(Cn1ncc2cc([N+](=O)[O-])ccc21)N/N=C/c1cccc(Br)c1"
uom = "mm"
value = 14.5

[[record]]
molecule = "O=C(Cn1ncc2cc([N+](=O)[O-])ccc21)NN1C(=O)CSC1c1cccc([N+](=O)[O-])c1 (centres undefined)"
uom = "mm"
value = 22.3

[[record]]
molecule = "O=C(Cn1ncc2cc([N+](=O)[O-])ccc21)N/N=C/c1ccccc1"
uom = "mm"
value = 11.5

[[record]]
molecule = "O=C(Cn1ncc2cc([N+](=O)[O-])ccc21)N/N=C/c1ccccc1O"
uom = "mm"
value = 12

[[record]]
molecule = "O=C(Cn1ncc2cc([N+](=O)[O-])ccc21)NN1C(=O)CSC1c1ccc(Cl)cc1 (centres undefined)"
uom = "mm"
value = 20.2


---

Tested on: Fusarium oxysporum
assayInfo: Antifungal activity against Fusarium oxysporum
Assay type: functional
measuredEndpoint: MIC (µg/mL)

[[record]]
compound = "O=C(Cn1ncc2cc([N+](=O)[O-])ccc21)N/N=C/c1ccc(Cl)cc1"
measuredendpoint = "MIC"
value = 13

[[record]]
compound = "COc1ccc(/C=N/NC(=O)Cn2ncc3cc([N+](=O)[O-])ccc32)cc1"
measuredendpoint = "MIC"
value = 18

[[record]]
compound = "COc1ccccc1C1SCC(=O)N1NC(=O)Cn1ncc2cc([N+](=O)[O-])ccc21 (stereo not drawn)"
measuredendpoint = "MIC"
value = 17


---

System: Aspergillus flavus
assayInfo: Antifungal activity against Aspergillus flavus at 50 ug/mL
Type: functional
runConditions: read-out: IZ
Think of 20 mm as a floor: if zone of inhibition at 50 µg/mL stands on it or above, it is T; beneath it, F.

[[record]]
compound = "O=C(Cn1ncc2cc([N+](=O)[O-])ccc21)NN1C(=O)CSC1c1ccccc1Br (stereo not drawn)"
assignedcategory = "F"

[[record]]
compound = "CCOC(=O)Cn1ncc2cc([N+](=O)[O-])ccc21"
assignedcategory = "F"

[[record]]
compound = "O=C(Cn1ncc2cc([N+](=O)[O-])ccc21)N/N=C/c1ccccc1Br"
assignedcategory = "F"

[[record]]
compound = "O=C(Cn1ncc2cc([N+](=O)[O-])ccc21)NN1C(=O)CSC1c1ccccc1O (stereo not drawn)"
assignedcategory = "F"

[[record]]
compound = "O=C(Cn1ncc2cc([N+](=O)[O-])ccc21)NN1C(=O)CSC1c1ccccc1Cl (stereo not drawn)"
assignedcategory = "T"

[[record]]
compound = "Cc1ccc(C2SCC(=O)N2NC(=O)Cn2ncc3cc([N+](=O)[O-])ccc32)cc1 (stereo not drawn)"
assignedcategory = "F"

